targetOfAssay: T1, Recombinant Human PD-1 protein (PD1-H5221, Acro Biosystems) (human, UniProt Q15116 25-167)
T1 construct: Bought reagent, amine-coupled to a CM5 chip for SPR
T1 sequence (Q15116 25-167 limits assumed): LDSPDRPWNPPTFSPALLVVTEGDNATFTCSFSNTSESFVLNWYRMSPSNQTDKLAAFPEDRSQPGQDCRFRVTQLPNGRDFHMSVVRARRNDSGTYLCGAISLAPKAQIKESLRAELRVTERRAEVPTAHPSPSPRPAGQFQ
measurementDescription: SPR (Biacore T100), recombinant human PD-1 coupled to a CM5 chip, peptide as analyte at 0.3125-20 µM
Description: The affinity of the peptides was tested with Biocore T100 through surface plasmon resonance (SPR) technique. […] Finally, the affinities (Kd-value) of the peptides were calculated by fitting curves in the sensor diagram in Biacore software.
Where no end group is shown, it is not given here.
metricName: pKd
A value of pKd is the negative decimal logarithm of a concentration given in moles per litre.

Per the records, this binder ( SRLKEIANSPTQFWRMVARNTLGGAKQSLNIEHARL (not fully specified, also called PD-1-nABP284) [nABP284] ) has pKd equal to 4.93

# credit: patent US20240209043A1
